Source: paper PMC8451688

# Tested on: NRK-52E cells
# Format: cell-based
# STUDY CONDITIONS: Table 3; normal rat kidney cell line; MTT

- COMPOUND: "COc1ccccc1/C=C1\\SC(=S)N(CC(=O)Nc2ccccc2)C1=O [I5]"
  TESTED SYSTEM: "NRK-52E cells"
  UNITS SYMBOL: "%"
  IC50 (%inhibition ± SD) NRK-52E: 17.4
- COMPOUND: "O=C(CN1C(=O)/C(=C/c2ccccc2)SC1=S)Nc1ccccc1 [I1]"
  TESTED SYSTEM: "NRK-52E cells"
  UNITS SYMBOL: "%"
  IC50 (%inhibition ± SD) NRK-52E: 13.1
- COMPOUND: "O=C(CN1C(=O)/C(=C/c2ccco2)SC1=S)Nc1ccccc1 [I24]"
  TESTED SYSTEM: "NRK-52E cells"
  UNITS SYMBOL: "%"
  IC50 (%inhibition ± SD) NRK-52E: 20.1
- COMPOUND: "CCOc1ccc(/C=C2\\SC(=S)N(CC(=O)Nc3ccccc3)C2=O)cc1 [I19]"
  TESTED SYSTEM: "NRK-52E cells"
  UNITS SYMBOL: "%"
  IC50 (%inhibition ± SD) NRK-52E: 11.0
- COMPOUND: "O=C(CN1C(=O)/C(=C/c2ccc(Cl)cc2)SC1=S)Nc1ccccc1 [I15]"
  TESTED SYSTEM: "NRK-52E cells"
  UNITS SYMBOL: "%"
  IC50 (%inhibition ± SD) NRK-52E: 15.1
